Source: a melting point compilation (Tetko et al.; mined from patent text by program, amines drawn as free bases though some values may be those of a salt)

RECORDED_ENDPOINT: melting point

Guide cases for melting point, answers given:
COC(=O)c1cc([N+](=O)[O-])c(C=Cc2ccc(OC)cc2)c([N+](=O)[O-])c1
142 to 143 °C
CCOC(=O)c1[nH]c2cc(Cl)cc(Cl)c2c1NCC(=O)c1ccccc1Cc1ccccc1
225 to 227 °C
CNS(=O)(=O)c1ccccc1Nc1nc(Nc2ccc3c(c2)CCN(CCOC)CC3)ncc1Cl
102 to 108 °C
O=C(O)c1ccccc1OCCN1CCC(c2cn(Cc3ccoc3)c3ncccc23)CC1
105 to 107 °C
CN(C)Cc1ccc(CSCCNC2=NS(=O)(=O)N=C2N(C)C)o1
139 to 142 °C
COc1cc(C(=O)N(C(C)C)C2CCCCC2)ccc1Cn1c(C)nc2cccnc21
210 to 212 °C
COc1ccc2cc([C@H](C)C(=O)ON3C(=O)c4ccccc4C3=O)ccc2c1
110 to 112 °C
CCOC(=O)C1=C(Nc2ccccc2)CN(C(=O)c2ccccc2)C1
149 to 151 °C

Would you kindly look at the next entry?
// query Quickly give me recorded melting point for CSC1NC(=O)N(C(C)C)C(=O)N1C (centres undefined)
// result 73 to 75 °C
